Assay: Determination of the log P values (formic acid method)
Details: reverse-phase C18 HPLC column, pH 3.4, logP (HCOOH), final compounds table; HPLC reverse-phase C18, acidic range pH 3.4, 55° C.
MEASURED ENDPOINT: chromatographic logP
Reply with the value as a number alone.

Here's what some known entries look like.
MOLECULE SMILES: CC(C)S(=O)(=O)NC(=O)c1cccc(-c2cnc(-c3cncc(F)c3)s2)n1
NUMERIC RESULT: 2.61

MOLECULE SMILES: CS(=O)(=O)NC(=O)c1cccc(-c2cnc(-c3cncc(Cl)c3)s2)n1
NUMERIC RESULT: 2.4

MOLECULE SMILES: CN(C)S(=O)(=O)NC(=O)c1cccc(-c2cnn(-c3cccnc3)c2)n1
NUMERIC RESULT: 1.96

MOLECULE SMILES: O=C(NS(=O)(=O)CC(F)(F)F)c1cccc(-c2nnc(-c3cncc(F)c3)s2)n1
NUMERIC RESULT: 2.42

MOLECULE SMILES: O=C(NS(=O)(=O)c1ccccc1)c1cccc(-c2cnn(-c3cncnc3)c2)n1
NUMERIC RESULT: 2.24

Data point: CC(C)(C)S(=O)(=O)NC(=O)c1cccc(-c2nnc(-c3cncc(F)c3)s2)n1 ; chromatographic logP = 2.38

###

Assay: physchem
Settings: pH 3.4, log P (HCOOH)
MEASURED ENDPOINT: chromatographic logP
Reply with the value as a number alone.

MOLECULE SMILES: CS(=O)(=O)NC(=O)c1cccc(-c2nnc(-c3cncc(F)c3)s2)n1
MEASURED ENDPOINT: chromatographic logP
NUMERIC RESULT: 1.79

Data point: O=C(NS(=O)(=O)C(F)(F)F)c1cccc(-c2cnc(-c3cncc(F)c3)s2)n1 ; chromatographic logP = 1.86

Data point: CCOC(=O)c1cc(-c2sc(-c3cncc(F)c3)nc2C)nn1C ; chromatographic logP = 3.7

Data point: CC1(C)OB(c2cnn(-c3cccnc3)c2)OC1(C)C ; chromatographic logP = 2.19

Data point: CS(=O)(=O)Nc1cccc(-c2cnn(-c3cccnc3)c2)n1 ; chromatographic logP = 1.26

###

Assay: Determination of the log P values (formic acid method)
Conditions: reverse-phase C18 HPLC column, pH 3.4, logP (HCOOH), intermediates tables; HPLC reverse-phase C18, acidic range pH 3.4, 55° C.
Give yes (1) when the value for chromatographic logP is at least 2. Give no (0) when it is less.

Known results for compounds:
COMPOUND: NS(=O)(=O)c1cccc(-c2cnn(-c3cncc(F)c3)c2)n1 [XVII-2]
LABEL: no (0)
--
COMPOUND: N#Cc1cncc(-c2nccs2)c1 [XIII-4]
LABEL: no (0)
--
COMPOUND: Fc1cncc(-c2nccs2)c1 [XIII-1, 3-Fluoro-5-(1,3-thiazol-2-yl)pyridine]
LABEL: no (0)

Kindly consider the entry below.
Ask | Does chromatographic logP meet or surpass 2 for CS(=O)(=O)NC(=O)c1csc(Br)n1 [XV-1] ?
Reply | no (0)

###

Measured chromatographic logP, listed per entry.
Experiment: Determination of the log P values (formic acid method)
Conditions: reverse-phase C18 HPLC column, pH 3.4, logP (HCOOH), final compounds table; HPLC reverse-phase C18, acidic range pH 3.4, 55° C.

Here's what some known entries look like.
MOLECULE SMILES: O=C(NS(=O)(=O)Cc1ccccc1)c1cccc(-c2cnn(-c3cncc(F)c3)c2)n1
RESULT: 2.89
--
MOLECULE SMILES: COCCS(=O)(=O)NC(=O)c1cccc(-c2cnc(-c3cncc(F)c3)s2)n1
RESULT: 2.19
--
MOLECULE SMILES: CS(=O)(=O)NC(=O)c1cccc(-c2cnc(-c3cncc(C#N)c3)s2)n1
RESULT: 1.95

Data point: Cc1nc(Cl)sc1S(=O)(=O)NC(=O)c1cccc(-c2cnc(-c3cncc(F)c3)s2)n1 ; chromatographic logP = 3.41

###

Experiment: Determination of the log P values (formic acid method)
Settings: reverse-phase C18 HPLC column, pH 3.4, logP (HCOOH), final compounds table; HPLC reverse-phase C18, acidic range pH 3.4, 55° C.
MEASURED ENDPOINT: chromatographic logP

MOLECULE: CS(=O)(=O)NC(=O)c1nc(-c2cnn(-c3cncc(F)c3)c2)cs1 [Compound 46]
chromatographic logP: 1.68
--
MOLECULE: O=C(NS(=O)(=O)c1cccs1)c1cccc(-c2nnc(-c3cncc(F)c3)s2)n1 [Compound 75]
chromatographic logP: 2.38
--
MOLECULE: CC(=O)Nc1nnc(S(=O)(=O)NC(=O)c2cccc(-c3nnc(-c4cncc(F)c4)s3)n2)s1 [Compound 76]
chromatographic logP: 1.43
--
MOLECULE: Cc1nc(-c2cncc(F)c2)sc1-c1cc(C(=O)NS(C)(=O)=O)n(C)n1 [Compound 63]
chromatographic logP: 2.04
--
MOLECULE: CS(=O)(=O)NC(=O)c1cccc(-c2cnc(-c3cncnc3)s2)n1 [Compound 8]
chromatographic logP: 1.48
--
MOLECULE: CS(=O)(=O)N(CC#N)C(=O)c1cccc(-c2cnc(-c3cncc(F)c3)s2)n1 [Compound 65]
chromatographic logP: 2.28
--
MOLECULE: O=C(NS(=O)(=O)Cc1ccccc1)c1cccc(-c2cnn(-c3cncnc3)c2)n1 [Compound 34]
chromatographic logP: 2.28
--
MOLECULE: CCS(=O)(=O)NC(=O)c1cccc(-c2nnc(-c3cncc(F)c3)s2)n1 [Compound 70]
chromatographic logP: 2.07

Data point: CCC(=O)NS(=O)(=O)c1cccc(-c2cnn(-c3cccnc3)c2)n1 [Compound 42] ; chromatographic logP = 1.43

Data point: CC(=O)NS(=O)(=O)c1cccc(-c2cnc(-c3cncc(F)c3)s2)n1 [Compound 67] ; chromatographic logP = 1.72

Data point: O=C(NS(=O)(=O)c1ccccc1)c1cccc(-c2cnc(-c3cncc(F)c3)s2)n1 [Compound 13] ; chromatographic logP = 2.94

###

Assay: physchem
Conditions: pH 3.4, logP (HCOOH)
MEASURED ENDPOINT: chromatographic logP
Reply with the value as a number alone.

Data point: CC(C)N(C)S(=O)(=O)NC(=O)c1cccc(-c2cnc(-c3cncc(F)c3)s2)n1 ; chromatographic logP = 3.09

Data point: CCN(CC)S(=O)(=O)NC(=O)c1cccc(-c2cnn(-c3cncc(F)c3)c2)n1 ; chromatographic logP = 2.98

Data point: CC(C1CC1)N(C)S(=O)(=O)NC(=O)c1cccc(-c2cnc(-c3cncc(F)c3)s2)n1 (stereo not drawn) ; chromatographic logP = 3.47

###

Assay: Determination of the log P values (formic acid method)
Settings: reverse-phase C18 HPLC column, pH 3.4, log P (HCOOH), preparation examples; HPLC-MS
Measured chromatographic logP, listed per entry.

Here's what some known entries look like.
MOLECULE SMILES: CS(=O)(=O)NC(=O)c1cccc(-c2cnn(-c3cncc(F)c3)c2)n1
chromatographic logP: 1.98

MOLECULE SMILES: CS(=O)(=O)NC(=O)c1csc(Br)n1
chromatographic logP: 0.83

MOLECULE SMILES: COC(=N)c1cccc(-c2cnc(-c3cncc(F)c3)s2)n1
chromatographic logP: 0.9

MOLECULE SMILES: CS(=O)(=O)NC(=O)c1nc(Br)cs1
chromatographic logP: 0.63

MOLECULE SMILES: N=C(N)c1cccc(-c2cnc(-c3cncc(F)c3)s2)n1
chromatographic logP: 0.71

Data point: O=C(O)c1cccc(-c2cnc(-c3cncc(F)c3)s2)n1 ; chromatographic logP = 1.72

Data point: CC(=O)NS(=O)(=O)c1cccc(Br)n1 ; chromatographic logP = 0.95

Data point: Nc1cccc(-c2cnn(-c3cccnc3)c2)n1 ; chromatographic logP = 0.3

Data point: Cc1nc(-c2cncc(F)c2)sc1-c1cc(C(=O)O)n(C)n1 ; chromatographic logP = 2.05

Data point: N#Cc1cccc(-c2cnc(-c3cncc(F)c3)s2)n1 ; chromatographic logP = 2.51

Data point: Fc1cncc(-c2nccs2)c1 ; chromatographic logP = 1.48

Data point: Brc1cnn(-c2cccnc2)c1 ; chromatographic logP = 1.56

Data point: Cc1nc(-c2cncc(F)c2)sc1-c1cc(C(=O)NS(C)(=O)=O)n(C)n1 ; chromatographic logP = 2.04

Data point: NS(=O)(=O)c1cccc(-c2cnn(-c3cccnc3)c2)n1 ; chromatographic logP = 0.99

Data point: CS(=O)(=O)NC(=O)c1nc(-c2cnn(-c3cncc(F)c3)c2)cs1 ; chromatographic logP = 1.68

Data point: CS(=O)(=O)NC(=O)c1cccc(Br)n1 ; chromatographic logP = 1.21

Data point: CS(=O)(=O)NC(=O)c1cccc(-c2cn[nH]c2)n1 ; chromatographic logP = 0.91

###

Assay: physchem
Settings: pH 3.4, log P (HCOOH)
Experimental: 1) Description of Method for Determination of the log P Values (Formic Aid Method) Eluents for determination in the acidic range (pH 3.4): Eluent A: acetonitrile+1 ml of formic acid/liter. Eluent B: water+0.9 ml of formic acid/liter. The lambda max values were determined in the maxima of the chromatographic signals using the UV spectra from 200 nm to 400 nm.
MEASURED ENDPOINT: chromatographic logP

Here's what some known entries look like.
MOLECULE SMILES: CC(=O)NS(=O)(=O)c1cccc(-c2cnc(-c3cccnc3)s2)n1
chromatographic logP: 1.3
//
MOLECULE SMILES: CCOC(=O)C(=O)CC(=O)c1sc(-c2cncc(F)c2)nc1C
chromatographic logP: 3.37
//
MOLECULE SMILES: COC(=O)c1cccc(-c2cnc(-c3cncc(F)c3)s2)n1
chromatographic logP: 2.37
//
MOLECULE SMILES: CS(=O)(=O)NC(=O)c1csc(-c2cnn(-c3cccnc3)c2)n1
chromatographic logP: 1.25

Would you kindly look at the next entry?
Data point: CC(=O)NS(=O)(=O)c1cccc(-c2cnn(-c3cccnc3)c2)n1 ; chromatographic logP = 1.17
